Values from patent US8501804B2

# TARGET OR TEST SYSTEM: human ACC2 (Nd) (Homo sapiens)
# Construct: His6 (from vector pFAST-BacHTa); made in house; host or cells: SF-9 insect cells, recombinant baculovirus BAC-ACC2 (Nd)
# Sequence (O00763 117-2458 limits assumed): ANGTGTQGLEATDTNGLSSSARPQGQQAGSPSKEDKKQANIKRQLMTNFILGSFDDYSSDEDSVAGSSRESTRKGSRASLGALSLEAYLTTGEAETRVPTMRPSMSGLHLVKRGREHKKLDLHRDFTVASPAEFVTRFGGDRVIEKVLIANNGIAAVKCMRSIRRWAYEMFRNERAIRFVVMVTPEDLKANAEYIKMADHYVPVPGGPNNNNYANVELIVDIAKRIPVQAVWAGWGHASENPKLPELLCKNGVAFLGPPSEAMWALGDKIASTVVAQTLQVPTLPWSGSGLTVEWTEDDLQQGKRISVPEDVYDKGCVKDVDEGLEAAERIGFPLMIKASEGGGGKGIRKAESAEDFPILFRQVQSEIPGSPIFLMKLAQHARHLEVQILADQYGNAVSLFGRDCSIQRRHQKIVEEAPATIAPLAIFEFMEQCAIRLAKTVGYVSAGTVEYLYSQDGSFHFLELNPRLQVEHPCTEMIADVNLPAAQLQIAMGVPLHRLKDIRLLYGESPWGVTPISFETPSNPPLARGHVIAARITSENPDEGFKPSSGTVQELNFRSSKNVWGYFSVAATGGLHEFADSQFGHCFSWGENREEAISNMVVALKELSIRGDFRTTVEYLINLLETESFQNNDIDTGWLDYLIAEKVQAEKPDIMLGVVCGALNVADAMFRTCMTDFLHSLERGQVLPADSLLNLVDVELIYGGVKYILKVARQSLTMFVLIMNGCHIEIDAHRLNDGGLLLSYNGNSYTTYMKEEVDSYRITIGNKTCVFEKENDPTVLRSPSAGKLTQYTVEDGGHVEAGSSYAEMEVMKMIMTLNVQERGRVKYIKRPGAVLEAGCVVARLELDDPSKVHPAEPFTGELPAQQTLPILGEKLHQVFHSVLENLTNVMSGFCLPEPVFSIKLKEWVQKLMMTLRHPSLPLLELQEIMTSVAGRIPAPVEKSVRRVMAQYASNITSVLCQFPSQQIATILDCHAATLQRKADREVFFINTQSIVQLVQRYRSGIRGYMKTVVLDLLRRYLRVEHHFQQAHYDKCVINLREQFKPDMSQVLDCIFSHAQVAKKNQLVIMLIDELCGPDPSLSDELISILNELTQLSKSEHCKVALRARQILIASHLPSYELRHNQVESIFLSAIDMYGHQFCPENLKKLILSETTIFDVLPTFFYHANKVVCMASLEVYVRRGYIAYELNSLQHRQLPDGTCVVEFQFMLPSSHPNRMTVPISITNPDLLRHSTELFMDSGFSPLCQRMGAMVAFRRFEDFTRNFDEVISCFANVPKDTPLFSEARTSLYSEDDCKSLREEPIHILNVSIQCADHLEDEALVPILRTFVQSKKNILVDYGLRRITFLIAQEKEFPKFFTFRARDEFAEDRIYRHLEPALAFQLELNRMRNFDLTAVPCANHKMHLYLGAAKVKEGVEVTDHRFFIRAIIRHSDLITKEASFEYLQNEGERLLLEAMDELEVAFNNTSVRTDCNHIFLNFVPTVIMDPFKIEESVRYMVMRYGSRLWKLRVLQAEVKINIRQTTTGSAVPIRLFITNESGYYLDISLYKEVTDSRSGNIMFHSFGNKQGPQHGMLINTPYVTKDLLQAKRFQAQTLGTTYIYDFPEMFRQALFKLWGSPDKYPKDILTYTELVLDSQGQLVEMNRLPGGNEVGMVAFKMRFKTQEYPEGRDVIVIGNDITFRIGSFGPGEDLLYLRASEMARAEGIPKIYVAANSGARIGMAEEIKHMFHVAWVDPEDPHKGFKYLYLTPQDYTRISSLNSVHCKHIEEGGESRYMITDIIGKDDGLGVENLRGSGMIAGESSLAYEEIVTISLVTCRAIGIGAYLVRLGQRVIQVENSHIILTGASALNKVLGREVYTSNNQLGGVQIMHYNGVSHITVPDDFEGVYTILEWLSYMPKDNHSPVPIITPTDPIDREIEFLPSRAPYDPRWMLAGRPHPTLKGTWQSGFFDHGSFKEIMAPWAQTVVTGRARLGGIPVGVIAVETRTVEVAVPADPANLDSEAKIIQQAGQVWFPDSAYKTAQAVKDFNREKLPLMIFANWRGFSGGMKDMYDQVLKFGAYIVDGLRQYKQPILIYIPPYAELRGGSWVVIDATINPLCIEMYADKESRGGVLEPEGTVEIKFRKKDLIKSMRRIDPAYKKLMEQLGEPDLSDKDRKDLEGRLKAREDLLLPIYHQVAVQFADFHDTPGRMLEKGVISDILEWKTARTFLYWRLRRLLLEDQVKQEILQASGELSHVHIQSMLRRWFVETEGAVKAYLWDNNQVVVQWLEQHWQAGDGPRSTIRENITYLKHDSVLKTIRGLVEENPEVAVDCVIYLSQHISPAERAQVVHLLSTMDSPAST
# TEST SUMMARY: ACC2 inhibitory activity (malachite green)
# Format: biochemical
# RUN PARAMETERS: test compound 10 μM
MEASUREMENT TYPE: ACC2 10 μM inhibitory rate (%)
Numeric only. Scale: %

Examples with their reported ACC2 10 μM inhibitory rate (%) follow.
{"COMPOUND": "CC(=O)NC(C)C1Cc2cc(OCc3ccc(OCC4CC4)cc3F)ccc2O1 (stereo not shown) [Example 140]", "TARGET OR TEST SYSTEM": "human ACC2 (Nd) (Homo sapiens)", "ACC2 10 μM inhibitory rate (%)": 66}
{"COMPOUND": "CCCCOc1ccc(CCc2ccc3cc(C(C)NC(C)=O)oc3c2)cc1 (stereo not shown) [Example 189 (retention time shorter)]", "TARGET OR TEST SYSTEM": "human ACC2 (Nd) (Homo sapiens)", "ACC2 10 μM inhibitory rate (%)": 77}
{"COMPOUND": "CC(=O)N[C@@H](C)[C@@H]1Cc2ccc(C#Cc3ccc(OCC4CC4)cc3)cc2O1.CC(=O)N[C@H](C)[C@H]1Cc2ccc(C#Cc3ccc(OCC4CC4)cc3)cc2O1 (mixture of isomers) [Example 129 (retention time longer)]", "TARGET OR TEST SYSTEM": "human ACC2 (Nd) (Homo sapiens)", "ACC2 10 μM inhibitory rate (%)": 86}
{"COMPOUND": "CCCOc1ccc(CCc2ccc3cc(C(C)NC(C)=O)oc3c2)cc1 (stereo not shown)", "TARGET OR TEST SYSTEM": "human ACC2 (Nd) (Homo sapiens)", "ACC2 10 μM inhibitory rate (%)": 91}
{"COMPOUND": "CC(=O)NC(C)C1Cc2cc(OCc3ccc(OCC4CC4)cc3F)ccc2O1 (stereo not shown) [Example 141 (retention time shorter)]", "TARGET OR TEST SYSTEM": "human ACC2 (Nd) (Homo sapiens)", "ACC2 10 μM inhibitory rate (%)": 95}
{"COMPOUND": "CCOc1ccc(COc2ccc3oc(C(C)NC(C)=O)cc3c2)cc1 (stereo not shown)", "TARGET OR TEST SYSTEM": "human ACC2 (Nd) (Homo sapiens)", "ACC2 10 μM inhibitory rate (%)": 76}
{"COMPOUND": "CC(=O)NC(C)c1cc2ccc(CCc3ccc(OCC4CC4)cc3)cc2o1 (stereo not shown) [Example 191 (retention time shorter)]", "TARGET OR TEST SYSTEM": "human ACC2 (Nd) (Homo sapiens)", "ACC2 10 μM inhibitory rate (%)": 75}
{"COMPOUND": "CCOc1ccc(CCc2ccc3cc(C(C)NC(C)=O)oc3c2)cc1 (stereo not shown)", "TARGET OR TEST SYSTEM": "human ACC2 (Nd) (Homo sapiens)", "ACC2 10 μM inhibitory rate (%)": 83}
{"COMPOUND": "CC(=O)NC(C)c1cc2cc(OCc3ccc(OCC4CC4)cc3F)ccc2o1 (stereo not shown) [Example 116 (retention time longer)]", "TARGET OR TEST SYSTEM": "human ACC2 (Nd) (Homo sapiens)", "ACC2 10 μM inhibitory rate (%)": 63}

Let us move to another entry and its ACC2 10 μM inhibitory rate (%).
Query string: ACC2 10 μM inhibitory rate (%) lookup needed for CC(=O)N[C@@H](C)[C@@H]1Cc2ccc(CCc3ccc(OCC4CC4)cc3)cc2O1.CC(=O)N[C@H](C)[C@H]1Cc2ccc(CCc3ccc(OCC4CC4)cc3)cc2O1 (mixture of isomers) [Example 130 (retention time longer)] , thanks.
Result string: 62

###

# TARGET OR TEST SYSTEM: human ACC1 (Homo sapiens, UniProt Q13085)
# Construct: His6 (from vector pFAST-BacHTc); made in house; host or cells: SF-9 insect cells, recombinant baculovirus BAC-ACC1
# TEST SUMMARY: ACC1 inhibitory activity (malachite green)
# Assay type: biochemical
# RUN PARAMETERS: test compound 10 μM; read-out: ACC1 10 μM inhibitory rate (%)
MEASUREMENT TYPE: inhibition at 10 µM

Examples with their reported inhibition at 10 µM follow.
{"COMPOUND": "CC(=O)N[C@@H](C)[C@@H]1Cc2ccc(OCc3ccc(OC[C@@H]4CCCO4)cc3F)cc2O1", "inhibition at 10 µM": "40%"}
{"COMPOUND": "CCOc1ccc(CCc2ccc3cc(C(C)NC(C)=O)oc3n2)cc1 (stereo not shown)", "inhibition at 10 µM": "8%"}
{"COMPOUND": "CC(=O)NC(C)c1cc2cc(OCc3ccc(OCC4CC4)nc3F)ccc2o1 (stereo not shown)", "inhibition at 10 µM": "24%"}

Let us move to another entry and its inhibition at 10 µM.
Query string: inhibition at 10 µM lookup needed for CC(=O)NC(C)c1coc2cc(OCc3ccc(OCC4CC4)nc3F)ccc12 (stereo not shown) , thanks.
Result string: 50%

###

# TARGET OR TEST SYSTEM: human ACC1 (Homo sapiens, UniProt Q13085)
# Construct: His6 (from vector pFAST-BacHTc); made in house; host or cells: SF-9 insect cells, recombinant baculovirus BAC-ACC1
# TEST SUMMARY: ACC1 inhibitory activity (malachite green)
# Type: biochemical
# RUN PARAMETERS: test compound 10 μM; read-out: ACC1 10 μM inhibitory rate (%)
MEASUREMENT TYPE: inhibition at 10 µM (%)
Numeric only. Scale: %

Examples with their reported inhibition at 10 µM follow.
{"COMPOUND": "CCOc1ccc(COc2ccc3oc(C(C)NC(C)=O)cc3c2)c(F)c1 (centres unmarked)", "inhibition at 10 µM [%]": 10}
{"COMPOUND": "CCOc1ccc(COc2ccc3oc(C(C)NC(C)=O)nc3c2)cc1 (centres unmarked)", "inhibition at 10 µM [%]": 1}
{"COMPOUND": "CCOc1ccc(CCc2ccc3cc(C(C)Nc4ccon4)oc3c2)cc1 (centres unmarked)", "inhibition at 10 µM [%]": 16}
{"COMPOUND": "CC(=O)NC(C)c1cc2ccc(CCc3ccc4c(c3)C(C)(C)CO4)cc2o1 (centres unmarked)", "inhibition at 10 µM [%]": 39}

Let us move to another entry and its inhibition at 10 µM.
Query string: inhibition at 10 µM lookup needed for CC(=O)N[C@@H](C)[C@@H]1Cc2ccc(C#Cc3ccc(OCC4CC4)nc3)cc2O1 , thanks.
Result string: 37

###

// reported inhibition at 10 µM per item
# TARGET OR TEST SYSTEM: human ACC1 (Homo sapiens, UniProt Q13085)
# Construct: His6 (from vector pFAST-BacHTc); made in house; host or cells: SF-9 insect cells, recombinant baculovirus BAC-ACC1
# TEST SUMMARY: ACC1 inhibitory activity (malachite green)
# Format: biochemical
# RUN PARAMETERS: test compound 10 μM; read-out: ACC1 10 μM inhibitory rate (%)
Numeric only. Scale: %

Examples with their reported inhibition at 10 µM follow.
{"COMPOUND": "CC(=O)N[C@@H](C)[C@@H]1Cc2ccc(OCc3ccc(OCC4CC4)nc3F)cc2O1", "inhibition at 10 µM [%]": 8}
{"COMPOUND": "CCOc1ccc(/C=C/c2ccc3cc(C(C)NC(C)=O)oc3c2)cc1 (centres unmarked)", "inhibition at 10 µM [%]": 33}
{"COMPOUND": "CC(Nc1ccon1)c1cc2ccc(CCc3ccc(OCC4CC4)cc3)cc2o1 (centres unmarked)", "inhibition at 10 µM [%]": 31}
{"COMPOUND": "CC(=O)NC(C)c1cc2cc(OCc3ccc(OCC4CC4)cc3F)ccc2o1 (centres unmarked)", "inhibition at 10 µM [%]": 40}

Let us move to another entry and its inhibition at 10 µM.
Query string: inhibition at 10 µM lookup needed for COCOc1ccc(CCc2ccc3cc(C(C)NC(C)=O)oc3c2)cc1 (centres unmarked) , thanks.
Result string: 43

###

// reported inhibition at 10 µM per item
# TARGET OR TEST SYSTEM: human ACC2 (Nd) (Homo sapiens)
# Construct: His6 (from vector pFAST-BacHTa); made in house; host or cells: SF-9 insect cells, recombinant baculovirus BAC-ACC2 (Nd)
# TEST SUMMARY: ACC2 inhibitory activity (malachite green)
# Type: biochemical
# RUN PARAMETERS: test compound 10 μM; read-out: ACC2 10 μM inhibitory rate (%)
# Procedure: The ACC2 inhibitory action of the compound of the present invention was evaluated by the following method. (1) Cloning of Human ACC2 Gene and Preparation of Recombinant Baculovirus Human ACC2 gene was cloned by PCR using a human skeletal muscle cDNA library (Clontech) as a template and Primer 1 and Primer 2 shown below. […]
Numeric only. Scale: %

Query string: inhibition at 10 µM lookup needed for CC(=O)NC(C)c1cc2ccc(CCc3ccc(OCCC4CC4)cc3)cc2o1 (centres unmarked) , thanks.
Result string: 80

Query string: inhibition at 10 µM lookup needed for CC(=O)NC(C)c1cc2cc(OCc3ccc(OCC4CC4)cc3)ccc2o1 (centres unmarked) [Example 132 (retention time longer)] , thanks.
Result string: 91

Query string: inhibition at 10 µM lookup needed for CCOc1ccc(COc2ccc3oc(C(C)NC(C)=O)cc3c2)c(F)c1 (centres unmarked) , thanks.
Result string: 78

Query string: inhibition at 10 µM lookup needed for CC(=O)N[C@@H](C)[C@@H]1Cc2ccc(OCc3ccc(OCC4CC4)cc3)cc2O1 , thanks.
Result string: 88
